- study-system: human mAChR M4 (Homo sapiens, UniProt P08173)
- assay-name: mAChR M4 cell-based functional assay (calcium flux, decrease of EC80 acetylcholine response)
- condition-notes: M4/Gqi5/CHO-K1 cells; decrease of response to EC80 acetylcholine
experimental-readout: IC50
The number alone won't do; follow it with the unit.

Please review the following examples before continuing.
# molecule, IC50
data = [
    ("Fc1ccc(Cl)c(-c2ccc(NC3CC4(C3)CN(CC3CCOCC3)C4)nn2)c1", "2270 nM"),
    ("Cc1nn(C)cc1-c1ccc(OCC2CC3(C2)CN(Cc2ccccc2)C3)nn1", "10000 nM"),
    ("Fc1ccc(Cl)c(-c2ccc(NCC3CC4(C3)CN(CC3CC5C=CC3C5)C4)nn2)c1 (centres unmarked)", "59 nM"),
    ("Cc1nn(C)cc1-c1ccc(NCC2CC3(C2)CN(CC2CCCCC2)C3)nn1", "4140 nM"),
    ("Cc1cccnc1CN1CC2(CC(COc3ccc(-c4cn(C)nc4C)nn3)C2)C1", "4200 nM"),
    ("CC(C)(C)CCN1CC2(C1)CC1(CC1CNc1ccc(Cl)nn1)C2 (centres unmarked)", "450 nM"),
    ("Cc1nn(C)cc1-c1ccc(OCC2CC3(C2)CN(CC2CCCCC2)C3)nn1", "2340 nM"),
    ("CC(C)(C)CCN1CC2(CC(Nc3ccc(-c4cc(F)ccc4Cl)nn3)C2)C1", "160 nM"),
]

Would you kindly share the measured IC50 for Fc1ccc(Cl)c(-c2ccc(NC3CC4(C3)CN(CC35CC6CC(CC(C6)C3)C5)C4)nn2)c1 ? 150 nM

Would you kindly share the measured IC50 for Cc1nn(C)cc1-c1ccc(NCC2CC3(C2)CN(CC2CC4C=CC2C4)C3)nn1 (centres unmarked) ? 700 nM

Would you kindly share the measured IC50 for CC(=O)Nc1ccc(-c2ccc(NCC3CC4(C3)CN(CCC(C)(C)C)C4)nn2)cc1 ? 2200 nM

Would you kindly share the measured IC50 for Fc1ccc(Cl)c(-c2ccc(NC3CC4(C3)CN(CC3CCCOC3)C4)nn2)c1 (centres unmarked) ? 2480 nM

Would you kindly share the measured IC50 for Cc1nn(C)cc1-c1ccc(NCC2CC3(C2)CN(CCC(C)(C)C)C3)nn1 ? 1490 nM

---

- study-system: human mAChR M4 (Homo sapiens)
- Construct: expressed in transfected cells; host or cells: CHO-K1 (ATCC), stably co-expressing the chimeric G protein Gqi5
- assay-name: mAChR M4 cell-based functional assay (calcium flux, decrease of EC80 acetylcholine response)
- condition-notes: % ACh maximum at 30 μM; human M4; read-out: Emin
// reported remaining activity at 30 µM for each item listed
The number alone won't do; follow it with the unit.

# compound, remaining activity at 30 µM
data = [
    ("Cc1nn(C)cc1-c1ccc(OCC2CC3(C2)CN(CC2CC4C=CC2C4)C3)nn1 (stereo not shown) [Compound 23]", "3.7%"),
]

remaining activity at 30 µM of Cc1nn(C)cc1-c1ccc(OCC2CC3(C2)CN(Cc2ccccc2)C3)nn1 [Compound 24] on human mAChR M4 (Homo sapiens)? 36.4%

remaining activity at 30 µM of Cc1cccnc1CN1CC2(CC(COc3ccc(-c4cn(C)nc4C)nn3)C2)C1 [Compound 25] on human mAChR M4 (Homo sapiens)? 16.5%

---

- study-system: human mAChR M4 (Homo sapiens)
- Sequence (P08173 1-479): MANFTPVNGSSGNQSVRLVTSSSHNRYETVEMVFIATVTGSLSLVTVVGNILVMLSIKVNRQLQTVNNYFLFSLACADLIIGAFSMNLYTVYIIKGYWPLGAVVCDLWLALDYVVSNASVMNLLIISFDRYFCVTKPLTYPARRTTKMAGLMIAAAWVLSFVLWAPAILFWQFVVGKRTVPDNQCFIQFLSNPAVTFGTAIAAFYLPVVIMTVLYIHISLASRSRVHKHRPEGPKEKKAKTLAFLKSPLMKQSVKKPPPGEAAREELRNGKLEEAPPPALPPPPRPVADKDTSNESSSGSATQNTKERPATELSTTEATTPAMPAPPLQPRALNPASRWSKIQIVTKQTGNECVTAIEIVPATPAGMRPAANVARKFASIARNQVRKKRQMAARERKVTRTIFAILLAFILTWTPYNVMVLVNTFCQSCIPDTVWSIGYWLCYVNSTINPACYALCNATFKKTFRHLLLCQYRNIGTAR
- assay-name: mAChR M4 cell-based functional assay (calcium flux, decrease of EC80 acetylcholine response)
- condition-notes: M4/Gqi5/CHO-K1 cells; decrease of response to EC80 acetylcholine
Define the label as 1.0 when IC50 is strictly less than 1000 nM and as 0.0 in all remaining cases.

The examples below pair each entry with its known result.
# compound, classification
rows = [
    ("Cc1nn(C)cc1-c1ccc(OCC2CC3(C2)CN(CC2CC4C=CC2C4)C3)nn1 (stereo not shown)", 1.0),
    ("Cc1cnn(C)c1-c1ccc(NCC2CC3(C2)CN(CCC(C)(C)C)C3)nn1", 0.0),
]

I'd appreciate it if you could check whether Cc1nn(C)cc1-c1ccc(NC2CC3(C2)CN(CC2CCOCC2)C3)nn1 has IC50 smaller than 1000 nM. 0.0

I'd appreciate it if you could check whether CC(=O)Nc1ccc(-c2ccc(NCC3CC4(C3)CN(CC3CCCCC3)C4)nn2)cc1 has IC50 smaller than 1000 nM. 0.0

I'd appreciate it if you could check whether Cc1nn(C)cc1-c1ccc(OCC2CC3(C2)CN(CCC(C)(C)C)C3)nn1 has IC50 smaller than 1000 nM. 0.0

I'd appreciate it if you could check whether Fc1ccc(Cl)c(-c2ccc(NC3CC4(C3)CN(CC3CCCCC3)C4)nn2)c1 has IC50 smaller than 1000 nM. 1.0

I'd appreciate it if you could check whether Cc1nn(C)cc1-c1ccc(NCC2CC3(C2)CN(CC(C)C(C)(C)C)C3)nn1 (stereo not shown) has IC50 smaller than 1000 nM. 0.0

---

// reported remaining activity at 30 µM for each item listed
- study-system: human mAChR M4 (Homo sapiens)
- Construct: expressed in transfected cells; host or cells: CHO-K1 (ATCC), stably co-expressing the chimeric G protein Gqi5
- assay-name: mAChR M4 cell-based functional assay (calcium flux, decrease of EC80 acetylcholine response)
- condition-notes: % ACh maximum at 30 μM; human M4; read-out: Emin
- Experimental: Human or rat M4 cDNA, along with the chimeric G protein Gqi5, were transfected into Chinese hamster ovary (CHO-K1) cells purchased from the American Type Culture Collection using Lipofectamine2000. […] Calcium flux was measured using the Functional Drug Screening System (FDSS) 6000 or 7000 (Hamamatsu Corporation, Tokyo, Japan) as an increase in the fluorescent static ratio. […] Agonist activity was analyzed as a concentration-dependent increase in calcium mobilization upon compound addition. […]
Use % as the unit, but write only the number.

Please review the following examples before continuing.
# molecule, units, remaining activity at 30 µM
records = [
    ("Fc1ccc(Cl)c(-c2ccc(NCC3CC4(C3)CN(CC3CC5C=CC3C5)C4)nn2)c1 (centres unmarked)", "%", 2.6),
    ("Fc1ccc(Cl)c(-c2ccc(NC3CC4(C3)CN(CC3CCOCC3)C4)nn2)c1", "%", 7.8),
    ("Cc1nn(C)cc1-c1ccc(NC2CC3(C2)CN(CC2CCOCC2)C3)nn1", "%", 46.5),
]

Would you kindly share the measured remaining activity at 30 µM for Cc1nn(C)cc1-c1ccc(NCC2CC3(C2)CN(CC2CCCCC2)C3)nn1 ? 13.5

Would you kindly share the measured remaining activity at 30 µM for CC(C)(C)CCN1CC2(C1)CC1(CC1CNc1ccc(Cl)nn1)C2 (centres unmarked) ? 4.9

Would you kindly share the measured remaining activity at 30 µM for Cc1nn(C)cc1-c1ccc(OCC2CC3(C2)CN(CC2CCCCC2)C3)nn1 ? 8.6

Would you kindly share the measured remaining activity at 30 µM for Fc1ccc(Cl)c(-c2ccc(NC3CC4(C3)CN(CC3CCCCC3)C4)nn2)c1 ? 3.1

Would you kindly share the measured remaining activity at 30 µM for CC(=O)Nc1ccc(-c2ccc(NCC3CC4(C3)CN(CC3CCCCC3)C4)nn2)cc1 ? 20.5

---

- study-system: human mAChR M4 (Homo sapiens)
- assay-name: mAChR M4 cell-based functional assay (calcium flux, decrease of EC80 acetylcholine response)
- condition-notes: M4/Gqi5/CHO-K1 cells; decrease of response to EC80 acetylcholine
experimental-readout: IC50 (nM)
Use nM as the unit, but write only the number.

# compound, units, IC50
rows = [
    ("CC(=O)Nc1ccc(-c2ccc(NCC3CC4(C3)CN(CC3CC5C=CC3C5)C4)nn2)cc1 (stereo not shown)", "nM", 1550),
    ("Cc1nn(C)cc1-c1ccc(NC2CC3(C2)CN(CCC(C)(C)C)C3)nn1", "nM", 2890),
    ("Fc1ccc(Cl)c(-c2ccc(NC3CC4(C3)CN(CC3CC5C=CC3C5)C4)nn2)c1 (stereo not shown)", "nM", 100),
]

IC50 of CC(=O)Nc1ccc(-c2ccc(NC3CC4(C3)CN(CCC(C)(C)C)C4)nn2)cc1 on human mAChR M4 (Homo sapiens)? 1310
